# Target: Nrg2 (UniProt P38082)
# Sequence: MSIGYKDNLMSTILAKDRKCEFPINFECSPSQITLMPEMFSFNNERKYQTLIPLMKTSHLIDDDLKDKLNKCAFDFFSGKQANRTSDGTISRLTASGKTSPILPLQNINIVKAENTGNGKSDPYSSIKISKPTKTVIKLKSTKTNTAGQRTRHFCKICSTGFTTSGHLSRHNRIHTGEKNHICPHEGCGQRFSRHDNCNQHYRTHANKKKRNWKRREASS
# Test protocol: PBM E-score (8-mer binding enrichment) (E-score (-0.5 to 0.5)); higher = stronger / more preferred TF binding
# Experimental context: protein concentration: 100 nM; construct: GST-full length
Whole data set: some 33,000 sequences, median “E-score (-0.5 to 0.5)” near -8e-05, cut for the highest 2% near 0.23. The list comes from a sample in which the highest values are over-represented; it also holds close analogues and randomly drawn sequences.
Experimental readout: PBM E-score
Just the number.

Consider the following illustrative entries.
Sequence content	PBM E-score
ATACCCTA	0.119
ACAAAAAC	0.0302
GAACTGTC	0.0447

Now for a further sequence.
Write down the reported PBM E-score of GACTACGC , test system: Nrg2 (UniProt P38082).
-0.187

---

PBM E-score values, listed per item
# Target: Nrg2 (UniProt P38082)
# Sequence: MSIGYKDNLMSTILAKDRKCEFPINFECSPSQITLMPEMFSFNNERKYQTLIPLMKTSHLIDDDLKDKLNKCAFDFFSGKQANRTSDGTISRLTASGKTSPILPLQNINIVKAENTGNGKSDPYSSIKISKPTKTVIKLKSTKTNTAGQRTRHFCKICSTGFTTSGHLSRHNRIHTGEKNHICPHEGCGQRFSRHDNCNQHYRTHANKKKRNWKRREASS
# Test protocol: PBM E-score (8-mer binding enrichment) (E-score (-0.5 to 0.5)); higher = stronger / more preferred TF binding
# Experimental context: protein concentration: 100 nM; construct: GST-full length
In all, about 33,000 sequences were measured (“E-score (-0.5 to 0.5)”: median about -8e-05, highest 2% from about 0.23 on). What follows is part of a selection rich in the highest values, with near analogues and random picks from the rest.
Just the number.

Fill blank: measured PBM E-score of the sequence GGGTTTAA is ____.
0.0664

Fill blank: measured PBM E-score of the sequence CGGCTTGC is ____.
0.237

Fill blank: measured PBM E-score of the sequence AACACTAG is ____.
0.152

Fill blank: measured PBM E-score of the sequence TGGAACAA is ____.
0.155

Fill blank: measured PBM E-score of the sequence TCCGTACA is ____.
0.146

Fill blank: measured PBM E-score of the sequence CACGGGGC is ____.
-0.0105

Fill blank: measured PBM E-score of the sequence TATAAATA is ____.
0.255

Fill blank: measured PBM E-score of the sequence CACCTGTC is ____.
0.0208

Fill blank: measured PBM E-score of the sequence CAAGTTTC is ____.
-0.00709

Fill blank: measured PBM E-score of the sequence AACAATAC is ____.
0.202

Fill blank: measured PBM E-score of the sequence CCGAAACA is ____.
0.102
